Cited source for all entries: PubChem BioAssay AID1159580

experiment summary: chemical genetic growth profiling, strain panel (AID 1159580);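 also: tested at 20 µM; growth read once vehicle control cultures reached saturation at 30 °C; 1 = growth at the plate median or of vehicle wells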
experimental context: S. cerevisiae deletion strains, growth OD, locus YNL207W, strain RIO2, stronger effect = lower value
In all, about 5,500 compounds went through this assay and about 2,000 (36%) were called active. Inconclusive results (about 18%) are left out. The list shows a part of the results.
quantity: normalized growth
Write no unit; give the number alone.

Entry under test: CCOC(=O)c1ccc(Oc2sccc2[N+](=O)[O-])cc1 . Its normalized growth was 0.862

Briefly, normalized growth measured for Brc1ccc(-c2csc(-c3cccnc3)n2)cc1 : 0.846

Notebook: CN(C)c1ccc(/C=C/c2ccc3ccccc3[n+]2C)cc1 , normalized growth read as 0.962

Looking up COc1ccc2c(c1)CCc1sc(NC(=O)c3ccco3)nc1-2 , I see its normalized growth listed as 0.96

Value of normalized growth reported for the compound COc1ccc(Nc2nc(NC(=O)Nc3ccc(Cl)cc3)n[nH]2)cc1 is 0.992

###

experiment summary: chemical genetic growth profiling, strain panel (AID 1159580)
experimental context: S. cerevisiae deletion strains, growth OD, locus YMR129W, stronger effect = lower value
Screen size: about 5,500 compounds; about 2,000 (36%) were called active. Roughly 18% stayed inconclusive and do not appear here. The list shows a part of the results.
Listed here are molecules together with their documented normalized growth.
Respond numerically, and do not add a unit to the figure.

// worked examples, normalized growth included
CC(C)c1nc(N(C)S(C)(=O)=O)nc(-c2ccc(F)cc2)c1/C=C/[C@@H](O)C[C@@H](O)CC(=O)O | 1.04
COc1ccc2c(c1)OCC(Cc1ccc(OC)c(O)c1)C2=O (centres undefined) | 0.948
COc1ccc2c(c1)OCC(Cc1ccc(OC)c(OC(C)=O)c1)C2=O (centres undefined) | 0.975
COc1cc2c(cc1OC)C1(O)C(=O)c3ccc(O)c(C(=O)O)c3OC1CO2 (centres undefined) | 0.987
COc1ccc2c(c1)OCC(Cc1ccc(OC)c(OC)c1)C2=O (centres undefined) | 0.981
COC(=O)[C@@H]1OC(=O)C2OC23[C@@]1(C)CCC1[C@@]2(C)CCC(=O)C(C)(C)C2C[C@@H](OC(C)=O)[C@]13C (some centres undefined) | 1.01
CN1CCC[C@@H]1CCO[C@](C)(c1ccccc1)c1ccc(Cl)cc1 | 0.99
CC(=O)O[C@]1(C)CC[C@@]23CC1C(C)(C)[C@@H]2CC[C@H]3C | 0.973

Proceeding to the next molecule to report its normalized growth.
Per the records, this molecule ( O=c1[nH]c(=O)n(C2C[C@H](O)[C@@H](CO)O2)cc1C(F)(F)F (some centres undefined) ) has normalized growth equal to 0.967

###

experiment summary: chemical genetic growth profiling, strain panel (AID 1159580)
experimental context: S. cerevisiae deletion strains, growth OD, locus YGL078C, strain dbp3
About 2,000 (36%) of roughly 5,500 compounds were called active. Another 18% or so got no clear call; they are omitted. No stated cut-off is given here; in the data, active means normalized growth mostly below about 0.91 (no sharp cut-off); inconclusive means no clear call, values can overlap the other calls; inactive means mostly above about 0.92. This is one part of the list.
# output must be one of active, inactive

O=C(O)CCC1NCC2CC1CN1CCCCC21 (stereo not drawn) | inactive

Prompt: Just curious, what result did Cc1cc(/C=C/c2ccc3cc(N(C)C)ccc3[n+]2C)c(C)n1-c1ccccc1 get here?
Response: inactive

Prompt: Which result was noted for this compound in the test: CC1(C)C(=O)[C@@H]2O[C@@H]2[C@@]2(C)C1C[C@@H](O)[C@]1(C)C2CC[C@@]2(C)[C@H](c3ccoc3)OC(=O)C3OC321 (stereo partly drawn)
Response: inactive

Prompt: Short answer needed: outcome of this test for Oc1c(Cl)cc(Cl)c(Cl)c1Cc1c(O)c(Cl)cc(Cl)c1Cl ?
Response: active

Prompt: Hello, I am checking results. What call was entered for CC(=O)O[C@H]1CC[C@@]2(C)C(C[C@@H](OC(C)=O)[C@]3(C)C2CC[C@@]2(C)[C@H](c4ccoc4)OC(=O)[C@H]4O[C@]423)C1(C)C (stereo partly drawn) ?
Response: inactive

Prompt: Which result was noted for this compound in the test: O=C(O)C(O)C(O)C(=O)O (stereo not drawn)
Response: inactive

###

experiment summary: chemical genetic growth profiling, strain panel (AID 1159580)
experimental context: S. cerevisiae deletion strains, growth OD, locus YJL157C, strain FAR1
The campaign covered roughly 5,500 compounds. About 2,000 (36%) were called active. Inconclusive results (about 18%) are left out. No stated cut-off is given here; in the data, active means normalized growth mostly below about 0.91 (no sharp cut-off); inconclusive means no clear call, values can overlap the other calls; inactive means mostly above about 0.92. The list shows a part of the results.
Outcome field: choose from active, inactive

Recorded results for 3 molecules are shown here.
O=C(Oc1ccc2ccccc2c1C1SCCS1)c1ccc([N+](=O)[O-])o1 | inactive
C/C(=N/NC(=S)NCC(C)(C)C)c1cc(F)cc(Cl)c1O | inactive
Clc1ccc(-c2cnc(Nc3cc(Cl)cc(Cl)c3)s2)cc1 | active

Prompt: // return assay outcome for Clc1ccc(CSc2nccn2-c2cc(Cl)ccc2Cl)cc1
Response: inactive

Prompt: Check the results log: what was the call for Cc1ccc(S(=O)(=O)Nc2nc(-c3ccc(C)c(Cl)c3)c(C)s2)cc1 ?
Response: inactive

Prompt: Per the assay record, what outcome was assigned to Brc1ccc(-c2csc(-c3cccnc3)n2)cc1 ?
Response: inactive

Prompt: # lookup: test call for O=C(NNc1ccccc1)c1cc(-c2ccc(Cl)cc2)oc1C(F)(F)F
Response: inactive

Prompt: // param item: Cc1ccc(-c2nc(NS(=O)(=O)c3cccc4nonc34)sc2C)cc1Cl ; yields the recorded call
Response: inactive

###

experiment summary: chemical genetic growth profiling, strain panel (AID 1159580);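 also: tested at 20 µM; growth read once vehicle control cultures reached saturation at 30 °C; 1 = growth at the plate median or of vehicle wells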
experimental context: S. cerevisiae deletion strains, growth OD, locus YNL224C, strain SQS1, stronger effect = lower value
Hit rate of the full screen: of about 5,500 compounds, about 2,000 (36%) were called active. Inconclusive results (about 18%) are left out. Some of the results follow.
normalized growth values, listed per item
Answer using only a numeral; do not append any unit.

Sample records with normalized growth:
O=NN(CCCl)C(=O)NCCCl | 1
CNc1ncnc2c1ncn2[C@@H]1O[C@H](CO)[C@H](O)C1O (some centres not stated) | 1
COc1ccc2c(c1)c(CC(=O)O)c(C)n2Cc1ccc(Cl)cc1 | 0.981
CC(O)C(C)OC(=O)[C@@H]1C[C@@H]2c3cccc4c3c(cn4C(C)C)C[C@H]2N(C)C1 (some centres not stated) | 1.01

Record O=C(O)CCCCCCCC(=O)O , field normalized growth: 1

Just so you know, measured normalized growth for NCCCCC(=O)O came out at 1

Short answer for NCCCCCC(=O)O : normalized growth was 1.02

get_value(item= CC(C)N(CCC(=O)c1ccc2ccccc2c1)Cc1ccccc1 , readout=normalized growth) returns 0.0703

Data point: Cc1ccccc1CNc1ncnc2c1ncn2C1OC(CO)C(O)C1O (configuration not stated) ; normalized growth = 1.01

###

experiment summary: chemical genetic growth profiling, strain panel (AID 1159580);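 also: tested at 20 µM; growth read once vehicle control cultures reached saturation at 30 °C; 1 = growth at the plate median or of vehicle wells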
experimental context: S. cerevisiae deletion strains, growth OD, locus YIR030C, strain dcg1
Out of some 5,500 compounds screened, about 2,000 (36%) were called active. Inconclusive results (about 18%) are left out. Cut-off read from the data, not from the text of the source: active = normalized growth mostly below about 0.91 (no sharp cut-off); inconclusive = no clear call, values can overlap the other calls; inactive = mostly above about 0.92. This is one part of the list.
Write down the outcome that applies. Available outcomes: 1 = active, 0 = inactive

Worked examples, 3 compounds total:
CNc1ccc(C(=O)CC(O)CCC(C)C2OC(=O)CC(O)CC(=O)CC(O)CC(O)CC(O)CC(O)CC3(O)CC(O)C(C(=O)OC)C(CC(OC4OC(C)C(O)C(N)C4O)/C=C/C=C/C=C/C=C/C=C/C=C/C=C/C2C)O3)cc1 (stereo unspecified) | 1
CC1OC(O[C@H]2/C=C/C=C/C=C/C=C/C=C/C=C/C=C/[C@H](C)[C@@H](O)[C@@H](C)[C@H](C)OC(=O)CC(O)CC(O)CCC(O)C(O)CC(O)C[C@]3(O)C[C@H](O)C(C(=O)O)C(C2)O3)C(O)[C@H](N)C1O (stereo partly specified) | 0
O=c1oc2ccccc2cc1O | 0

Prompt: Short answer needed: outcome of this test for O=c1cccc2n1CC1CC2CN2CCCC[C@@H]12 (stereo partly specified) ?
Response: 0

Prompt: How was NC(N)=NCCCCN=C(N)N classified in this test?
Response: 0

Prompt: What did the test return for COc1cc2c(cc1OC)C1(O)C(=O)c3ccc(O)c(C(=O)O)c3OC1CO2 (stereo unspecified) ?
Response: 0

Prompt: Identify the outcome logged in this assay for the compound shown: NCCCCNCCCN
Response: 0

Prompt: Assay outcome for NC1(C(=O)O)CC1 : what was it?
Response: 0

###

experiment summary: chemical genetic growth profiling, strain panel (AID 1159580);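 also: tested at 20 µM; growth read once vehicle control cultures reached saturation at 30 °C; 1 = growth at the plate median or of vehicle wells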
experimental context: S. cerevisiae deletion strains, growth OD, locus YNL224C, strain SQS1, stronger effect = lower value
Hit rate of the full screen: of about 5,500 compounds, about 2,000 (36%) were called active. Inconclusive results (about 18%) are left out. Some of the results follow.
quantity: normalized growth
Hey, just send me the number, nothing else.

# annotated cases, reported normalized growth shown
CC(N)c1cccc(Cl)c1Cl (configuration not stated) | 1.01
Nc1ccc(CCNc2ncnc3c2ncn3C2OC(CO)C(O)C2O)cc1 (configuration not stated) | 0.977
CCCCCCCCCCC/C=C\C(C)(C)/C=C\CCCC(=O)O | 1
Clc1ccc(C(c2ccccc2Cl)C(Cl)Cl)cc1 (configuration not stated) | 1
NCCCC(=O)O | 1.02
c1ccc2c(c1)[I+]c1ccccc1-2 | 0.892

Next up:
Documented normalized growth of CCCc1c(-c2ccc(O)cc2)nn(-c2ccc(O)cc2)c1-c1ccc(O)cc1 : 1
